Values were extracted from BigSolDB 2.1.

CONDITION_SET: in isopropanol, 328.18 K
MEASURED_ENDPOINT: solubility (mole fraction)

• O=P(CCCO)(CCCO)CCCO = 0.0465

====

CONDITION_SET: in isopropanol, 318.19 K
MEASURED_ENDPOINT: solubility (mole fraction)

• O=P(CCCO)(CCCO)CCCO = 0.0321

====

CONDITION_SET: in n-propanol, 328.18 K
MEASURED_ENDPOINT: solubility (mole fraction)

- O=P(CCCO)(CCCO)CCCO: 0.102

====

CONDITION_SET: in isobutanol, 308.15 K
MEASURED_ENDPOINT: solubility (mole fraction)

- O=P(CCCO)(CCCO)CCCO: 0.0234
